Experiment: protein stability index of a GFP-peptide fusion (yeast GPS) (PSI 1-4); higher = more stable; sorted into four equal gates, so the index is relative within each strain
Conditions: pdr5∆
Decide by protein stability index: equal to or exceeding 2 means rule met, less means rule not met.

>  <Sequence Entry>
ERNEQEREIMNDHSKSA [SWI3]

>  <Discrete Label>
rule met

$$$$
>  <Sequence Entry>
PGVRVSGEDVIIGKTTP [RPB2]

>  <Discrete Label>
rule met

$$$$
>  <Sequence Entry>
DVKVSISHDDLQAVAVA [FAS2]

>  <Discrete Label>
rule met

$$$$
>  <Sequence Entry>
NVAVDIINFGEIEQNTE [RPN10]

>  <Discrete Label>
rule met

$$$$
>  <Sequence Entry>
IREIDVTGGKKALVLFV [RPS7B]

>  <Discrete Label>
rule not met

$$$$
>  <Sequence Entry>
HLGERAASVIGMLVALG [RPC82]

>  <Discrete Label>
rule not met

$$$$
>  <Sequence Entry>
KRQFNNSYWLIILLGVL [ITC1]

>  <Discrete Label>
rule not met

$$$$
>  <Sequence Entry>
TEGRSRDGGLRLGEMER [RET1]

>  <Discrete Label>
rule not met

$$$$
>  <Sequence Entry>
EQGIELEHIDSKSEFAH [FAS2]

>  <Discrete Label>
rule met

$$$$
>  <Sequence Entry>
VDSISLHKIFYKVLKNN [YCG1]

>  <Discrete Label>
rule met

$$$$

====

Assay: protein stability index of a GFP-peptide fusion (yeast GPS) (PSI 1-4); higher = more stable; sorted into four equal gates, so the index is relative within each strain
Settings: doa10∆
Label fulfilled when protein stability index >= 3; otherwise not fulfilled.

>  <Sequence Entry>
DLQLLYVESDEDDTQIV [IRR1]

>  <Discrete Label>
fulfilled

$$$$
>  <Sequence Entry>
DNEEWMNDVINTEEVNR [LIN1]

>  <Discrete Label>
fulfilled

$$$$
>  <Sequence Entry>
DDALHAKKLPNGNWEVG [DIS3]

>  <Discrete Label>
fulfilled

$$$$
>  <Sequence Entry>
NSTASSSNISPEQVYSL [ARP7]

>  <Discrete Label>
not fulfilled

$$$$
>  <Sequence Entry>
PKAISNFLIKLSELSPG [YCS4]

>  <Discrete Label>
not fulfilled

$$$$
>  <Sequence Entry>
TQVYKLGLAKSVHHARV [RPS9A]

>  <Discrete Label>
not fulfilled

$$$$
>  <Sequence Entry>
FEIDGDVIHFEDSSILQ [PCI8]

>  <Discrete Label>
fulfilled

$$$$
>  <Sequence Entry>
KLSKILRTEYGWDSLAS [SNU114]

>  <Discrete Label>
fulfilled

$$$$
>  <Sequence Entry>
DKSTKTAEAPTLSFNFS [YOR098C/NUP1]

>  <Discrete Label>
fulfilled

$$$$
>  <Sequence Entry>
FTGNNSTPGGGSVFNMN [YOR098C/NUP1]

>  <Discrete Label>
not fulfilled

$$$$
>  <Sequence Entry>
KDSSLNYSSESYRNAFT [YJL039C/NUP192]

>  <Discrete Label>
not fulfilled

$$$$
>  <Sequence Entry>
KKVNGTSYKKWSFDLPE [PRP8]

>  <Discrete Label>
not fulfilled

$$$$
>  <Sequence Entry>
IVPDLIINPHAIPSRMT [RPB2]

>  <Discrete Label>
not fulfilled

$$$$
>  <Sequence Entry>
VELHGKRKLDIGKDTFV [PRP8]

>  <Discrete Label>
fulfilled

$$$$

====

Assay: protein stability index of a GFP-peptide fusion (yeast GPS) (PSI 1-4); higher = more stable; sorted into four equal gates, so the index is relative within each strain
Conditions: pdr5∆
Measurement Label: protein stability index

>  <Sequence Entry>
SMATPTHSDSHEDMKRR [ROX3]

>  <Measurement Label>
protein stability index

>  <Endpoint Value>
2.94

$$$$
>  <Sequence Entry>
NMYTSTQKTELEIDNKD [SIR4]

>  <Measurement Label>
protein stability index

>  <Endpoint Value>
3.01

$$$$
>  <Sequence Entry>
LKDIVGQTSRTVTPAPN [ITC1]

>  <Measurement Label>
protein stability index

>  <Endpoint Value>
3

$$$$
>  <Sequence Entry>
GEMERDCMIAHGAASFL [RPB2]

>  <Measurement Label>
protein stability index

>  <Endpoint Value>
3.08

$$$$
>  <Sequence Entry>
KAIFPNTVDGDLLKLVH [FAS1]

>  <Measurement Label>
protein stability index

>  <Endpoint Value>
3.06

$$$$
>  <Sequence Entry>
ALPDAVTIIEPKEEEPI [RPS3]

>  <Measurement Label>
protein stability index

>  <Endpoint Value>
2.99

$$$$
>  <Sequence Entry>
IALGEDIGKEMSLRHFG [RPN1]

>  <Measurement Label>
protein stability index

>  <Endpoint Value>
3.07

$$$$

====

Test: protein stability index of a GFP-peptide fusion (yeast GPS) (PSI 1-4); higher = more stable; sorted into four equal gates, so the index is relative within each strain
Settings: doa10∆

>  <Sequence Entry>
RKTLKEKAIPKDQRATT [RPO26]

>  <protein stability index>
3.06

$$$$
>  <Sequence Entry>
RYSNLVCKKADVDLHKR [RPS18A]

>  <protein stability index>
3.05

$$$$
>  <Sequence Entry>
GNGITNTTTRVIPQVEV [SNF5]

>  <protein stability index>
3.02

$$$$
>  <Sequence Entry>
LPQSEWKAPSSIVLDSE [DIS3]

>  <protein stability index>
3

$$$$
>  <Sequence Entry>
DLETSLSQSSSYLETLT [MED2]

>  <protein stability index>
2.94

$$$$
>  <Sequence Entry>
TNKSKRPSITEAMMLKE [MED1]

>  <protein stability index>
2.91

$$$$

====

Assay: protein stability index of a GFP-peptide fusion (yeast GPS) (PSI 1-4); higher = more stable; sorted into four equal gates, so the index is relative within each strain
Settings: doa10∆

>  <Sequence Entry>
GSELSSKIRKIHIQETQ [SIR3]

>  <protein stability index>
2.61

$$$$
>  <Sequence Entry>
ESGLVNADLDVKDELMF [RPO21]

>  <protein stability index>
3.16

$$$$
>  <Sequence Entry>
DSPFSLICQNNLNAFVD [SRP72]

>  <protein stability index>
2.98

$$$$
>  <Sequence Entry>
YLEESFTNLGIIVQYLT [RGR1]

>  <protein stability index>
2.17

$$$$
>  <Sequence Entry>
HGAFMDIIWLQRDLGLY [RRP6]

>  <protein stability index>
1.95

$$$$
>  <Sequence Entry>
SIPMGGQSINDSLKKLL [ARP9]

>  <protein stability index>
2.39

$$$$
>  <Sequence Entry>
LQVGDVVSTTAVIESVV [FAS1]

>  <protein stability index>
2.33

$$$$
>  <Sequence Entry>
RNESLKNNSSIRNVIMS [SRB8]

>  <protein stability index>
1.81

$$$$
>  <Sequence Entry>
FKGLETPLKARQREMAE [YLR018C/POM34]

>  <protein stability index>
3.27

$$$$
>  <Sequence Entry>
NAPAWFKLSSESVIEQI [RPS13]

>  <protein stability index>
1.98

$$$$
>  <Sequence Entry>
IHLNELLTNDESAFENL [SNF12]

>  <protein stability index>
2.73

$$$$
>  <Sequence Entry>
FNVHEVPRAALEERFDP [YMR129W/POM152]

>  <protein stability index>
3.13

$$$$
>  <Sequence Entry>
PTKLLVSEVAKIMQEAT [PRE8]

>  <protein stability index>
2.63

$$$$
>  <Sequence Entry>
DLLDMIQFGAKNMFEKK [ISW2]

>  <protein stability index>
3.25

$$$$
>  <Sequence Entry>
SMIEKGGDWERRNRYKT [RPN7]

>  <protein stability index>
3.01

$$$$
>  <Sequence Entry>
FYQGKTGVVYNVTKSSV [RPL21A]

>  <protein stability index>
2.69

$$$$
>  <Sequence Entry>
SKTLSLIQSYSLLDKPD [FAS1]

>  <protein stability index>
2.18

$$$$
>  <Sequence Entry>
LAGKYIPNLTAKPFQVT [FAS1]

>  <protein stability index>
2.37

$$$$
>  <Sequence Entry>
NNPANNTNNNNSTGHSS [SWI1]

>  <protein stability index>
2.58

$$$$
>  <Sequence Entry>
ANSQIQAYEEIISSNEN [YIL149C/MLP2]

>  <protein stability index>
2.95

$$$$
>  <Sequence Entry>
DKQGWTPLFHALAEGHG [NAS6]

>  <protein stability index>
2.75

$$$$
>  <Sequence Entry>
RVTGGMKVKADRDESSP [RPS14A]

>  <protein stability index>
3.31

$$$$
>  <Sequence Entry>
TRRFVNVTLVNGKRRMN [RPS30A]

>  <protein stability index>
1.67

$$$$
>  <Sequence Entry>
NNIIRIQQLISQFLKRV [SNF11]

>  <protein stability index>
2.1

$$$$
>  <Sequence Entry>
APEIPEDLYYLIKKAVS [RPS13]

>  <protein stability index>
2.94

$$$$
>  <Sequence Entry>
FLEKEKQLTLLRSKLFQ [SMC4]

>  <protein stability index>
2.46

$$$$
>  <Sequence Entry>
VFYAELNEFFTRELAEE [RPS3]

>  <protein stability index>
3.16

$$$$
>  <Sequence Entry>
ASFFFMVMFMHMAKGLY [COB]

>  <protein stability index>
1.86

$$$$
>  <Sequence Entry>
PYFPGGSIAMARVLFDD [CYT1]

>  <protein stability index>
2.29

$$$$
>  <Sequence Entry>
HDAPRGLFPFESYKPSV [SWI3]

>  <protein stability index>
3.31

$$$$
>  <Sequence Entry>
RRFKNGFQTGSAKATSA [RPL37B]

>  <protein stability index>
3.02

$$$$
>  <Sequence Entry>
DDDDEDDDEIVMPVPNV [SKP1]

>  <protein stability index>
3.3

$$$$
>  <Sequence Entry>
LSQNESTRASTVPNLPT [ISW2]

>  <protein stability index>
2.17

$$$$
>  <Sequence Entry>
KLDTEVKNTNANPVVAT [SWP82]

>  <protein stability index>
1.94

$$$$
>  <Sequence Entry>
VVDANGCVNSLISGPRN [YMR129W/POM152]

>  <protein stability index>
2.86

$$$$
